Entry source: patent US12497396B2

test: Plasma stability, dog plasma; assay type: in vitro ADME; conditions: dog plasma, 37° C., 15 min
Overview of recorded Residual rate (%) 15 min for various compounds
Value expressed in %; do not type the unit.

Ask: State its Residual rate (%) 15 min for this compound: C=CC(=O)N1CCN(c2nc(=O)n(-c3c(C)ccnc3C(C)C)c3nc(-c4c(O)cccc4F)c(F)cc23)[C@@H](C)C1 [AMG 510, reference compound]
Reply: 98.88

Ask: State its Residual rate (%) 15 min for this compound: C=CC(=O)N1C[C@H](C)N(c2nc(=O)n(-c3c(SC)ccnc3C(C)C)c3nc(-c4c(O)cccc4F)c(Cl)cc23)C[C@H]1C (single isomer, unassigned)
Reply: 99.98

Ask: State its Residual rate (%) 15 min for this compound: C=CC(=O)N1C[C@H](C)N(c2nc(=O)n(-c3c(SC)ccnc3C(C)C)c3nc(-c4c(N)ccc(Cl)c4F)c(Cl)cc23)C[C@H]1C (single isomer, unassigned)
Reply: 97.71

Ask: State its Residual rate (%) 15 min for this compound: CC[C@H](C)C(=O)O[C@H]1C[C@@H](C)C=C2C=C[C@H](C)[C@H](CC[C@@H]3C[C@@H](O)CC(=O)O3)[C@H]21 [Lovastatin, reference compound]
Reply: 95.25
